All figures here come from ChEMBL document CHEMBL5370647.

System: Mycobacterium tuberculosis
test-method-notes: Antitubercular activity against non-replicating Mycobacterium tuberculosis H37Rv expressing luxCDAB assessed as inhibition of bacterial growth incubated for 7 days under hypoxia conditions followed by incubation in normoxia conditions for 5 days by luminescence based analysis
Format: functional
experimental-conditions: 288 h, time 12 day
# MIC50 values compiled below

| smiles-code | MIC50 |
| --- | --- |
| Cc1cc(-c2nc(Nc3ccncc3)c3ccccc3n2)cs1 | > 10 µM |
| Fc1cccc(-c2nc(Nc3ccncc3)c3ccccc3n2)c1 | > 10 µM |
| COc1ccc(Nc2nc(-c3cccc(C)n3)nc3ccccc23)cc1 | < 0.3 µM |

---

Tested on: Mycobacterium tuberculosis
test-method-notes: Antitubercular activity against non-replicating Mycobacterium tuberculosis H37Rv constitutively expressing GFP assessed as inhibition of bacterial growth incubated for 7 days under hypoxic condition followed by incubation in aerobic conditions for 1 to 5 days by spot assay
Type: functional
experimental-conditions: time 8-12 day

| compound | cmp | MIC90 / µM |
| --- | --- | --- |
| CN1CCN(Cc2cccc(-c3ccc4c(Nc5ccc(Oc6ccccc6)cc5)ccnc4c3)c2)CC1 | = | 6 |
| Cc1cccc(-c2nc(Nc3ccncc3)c3ccccc3n2)n1 | = | 1 |
| CO[C@H]1/C=C/O[C@@]2(C)Oc3c(C)c(O)c4c(O)c(c(/C=N/N5CCN(C)CC5)c(O)c4c3C2=O)NC(=O)/C(C)=C\C=C\[C@H](C)[C@H](O)[C@@H](C)[C@@H](O)[C@@H](C)[C@H](OC(C)=O)[C@@H]1C [RIFAMPIN] | = | 0.4 |
| Nc1nc(-c2ccccn2)c(-c2ccnc3ccccc23)s1 | > | 20 |
| CS(=O)(=O)CCNCc1coc(-c2ccc3ncnc(Nc4ccc(OCc5ccccc5)cc4)c3c2)c1 [GW566221A] | = | 7 |

---

Test system: Mycobacterium tuberculosis
test-method-notes: Antitubercular activity against non-replicating Mycobacterium tuberculosis H37Rv expressing luxCDAB assessed as inhibition of bacterial growth incubated for 7 days under hypoxia conditions followed by incubation in normoxia conditions for 5 days by luminescence based analysis
Assay type: functional
experimental-conditions: 288 h, time 12 day
parameter-measured: MIC50

| smiles-code | experimental-target | obs-value |
| --- | --- | --- |
| Cc1cccc(-c2nc(Nc3ccc4nnn(C)c4c3)c3ccccc3n2)n1 | Mycobacterium tuberculosis | < 0.3 µM |
| c1cnc(-c2nc(Nc3ccncc3)c3ccccc3n2)nc1 | Mycobacterium tuberculosis | 2.5 µM |
| Cc1csc(-c2nc(Nc3ccncc3)c3ccccc3n2)n1 | Mycobacterium tuberculosis | > 10 µM |
